The reported numbers originate from patent US10537525B2.

assay: Endoscopic ultrasound-guided portal vein injection of irinotecan loaded microbeads vs jugular vein irinotecan: plasma and tissue concentrations (LC/MS); format: in vivo, pigs; settings: pig, liver, intravenous; control: unloaded irinotecan 100 mg into jugular vein; at 1 hour; read-out: Irinotecan level, Liver
Metric name: concentration at 1 h (ng/g)

smiles_text=CCc1c2c(nc3ccc(OC(=O)N4CCC(N5CCCCC5)CC4)cc13)-c1cc3c(c(=O)n1C2)COC(=O)[C@]3(O)CC result_value=3690

---

assay: in vivo; settings: male, pig, liver, intravenous, 50 mg
Metric name: concentration at 7 days (ng/g)

smiles_text=COc1cccc2c1C(=O)c1c(O)c3c(c(O)c1C2=O)C[C@@](O)(C(=O)CO)C[C@@H]3O[C@H]1C[C@H](N)[C@H](O)[C@H](C)O1 metric_name="concentration at 7 days" result_value=151
